Measurement record for Autotaxin (Homo sapiens, UniProt Q13822); quantity recorded: IC50.
OUTCOME MEASURE: IC50 (µM)

[[record]]
record_smiles = "O=C(Nc1ccc(OS(=O)(=O)c2ccccc2)cc1)c1ccc(Cl)cc1"
limit_operator = ">"
value = 100

[[record]]
record_smiles = "O=C(Nc1ccc(OS(=O)(=O)c2ccc(F)cc2)cc1)C1CCCCCC1"
limit_operator = "="
value = 4.94

[[record]]
record_smiles = "O=C(Nc1ccc(OS(=O)(=O)c2ccc(F)cc2)cc1)C1CCCC1"
limit_operator = "="
value = 1.47

[[record]]
record_smiles = "Cc1ccc(S(=O)(=O)Oc2ccc(NC(=O)c3ccc(Cl)cc3)cc2)cc1"
limit_operator = "="
value = 7.69

[[record]]
record_smiles = "O=C(Nc1ccc(OS(=O)(=O)c2ccccc2)cc1)c1ccc2ccccc2c1"
limit_operator = "="
value = 28


====

Target: Ectonucleotide pyrophosphatase/phosphodiesterase family member 3 (Homo sapiens, UniProt O14638)
Sequence (O14638 whole entry): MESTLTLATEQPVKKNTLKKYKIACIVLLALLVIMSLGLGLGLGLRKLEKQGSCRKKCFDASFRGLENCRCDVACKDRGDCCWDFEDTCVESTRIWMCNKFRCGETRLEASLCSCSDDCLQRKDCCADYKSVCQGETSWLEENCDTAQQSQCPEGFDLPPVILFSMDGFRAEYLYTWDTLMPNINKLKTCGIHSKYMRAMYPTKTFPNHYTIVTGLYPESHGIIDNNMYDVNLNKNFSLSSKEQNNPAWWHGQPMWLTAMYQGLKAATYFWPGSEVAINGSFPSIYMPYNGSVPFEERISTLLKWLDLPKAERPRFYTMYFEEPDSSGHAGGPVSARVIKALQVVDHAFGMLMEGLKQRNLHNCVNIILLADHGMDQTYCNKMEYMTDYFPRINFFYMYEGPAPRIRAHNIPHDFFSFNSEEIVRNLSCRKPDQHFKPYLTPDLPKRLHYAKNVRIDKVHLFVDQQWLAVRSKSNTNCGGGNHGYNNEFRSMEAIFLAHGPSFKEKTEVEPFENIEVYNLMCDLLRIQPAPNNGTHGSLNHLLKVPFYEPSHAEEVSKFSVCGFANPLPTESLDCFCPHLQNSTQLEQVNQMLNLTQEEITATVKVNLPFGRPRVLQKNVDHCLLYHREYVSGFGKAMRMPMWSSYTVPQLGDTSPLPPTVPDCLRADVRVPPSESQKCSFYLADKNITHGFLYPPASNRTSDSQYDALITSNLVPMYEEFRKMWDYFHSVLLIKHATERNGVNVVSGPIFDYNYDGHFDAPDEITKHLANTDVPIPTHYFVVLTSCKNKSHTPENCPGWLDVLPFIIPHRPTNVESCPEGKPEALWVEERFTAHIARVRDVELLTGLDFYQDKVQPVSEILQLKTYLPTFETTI
pIC50: −log10 of the molar value.
Catalogue of pIC50 values
OUTCOME MEASURE: pIC50

[[record]]
record_smiles = "O=C(Nc1ccc(OS(=O)(=O)c2ccc(C(F)(F)F)cc2)cc1)c1ccc(Cl)cc1"
outcome_measure = "pIC50"
value = 5.47

[[record]]
record_smiles = "O=C(Nc1ccc(OS(=O)(=O)c2ccc(F)cc2)cc1)c1ccc2ccccc2c1"
outcome_measure = "pIC50"
value = 4.87

[[record]]
record_smiles = "CC(C)(C)c1ccc(S(=O)(=O)Oc2ccc(NC(=O)C3CCCCCC3)cc2)cc1"
outcome_measure = "pIC50"
value = 4.33

[[record]]
record_smiles = "O=C(Nc1ccc(OS(=O)(=O)c2ccc(C(F)(F)F)cc2)cc1)C1CCCC1"
outcome_measure = "pIC50"
value = 5.40

[[record]]
record_smiles = "O=C(Nc1ccc(OS(=O)(=O)c2ccc(C(F)(F)F)cc2)cc1)C1CCCCCC1"
outcome_measure = "pIC50"
value = 5.59


====

Catalogue of inhibition values
Molecular target: Ectonucleotide pyrophosphatase/phosphodiesterase family member 1 (Homo sapiens)
Assay: Inhibition of human NPP1 expressed in African green monkey COS7 cell membranes pre-incubated for 10 mins before pNP-TMP substrate addition and further incubated for 15 mins by colorimetric method relative to untreated control
Parameters: concentration or dose not given beside the values
OUTCOME MEASURE: inhibition (%)

[[record]]
record_smiles = "Cc1ccc(S(=O)(=O)Oc2ccc(NC(=O)c3ccc4ccccc4c3)cc2)cc1"
measured_on = "Ectonucleotide pyrophosphatase/phosphodiesterase family member 1 (Homo sapiens)"
u = "%"
value = 24

[[record]]
record_smiles = "O=C(Nc1ccc(OS(=O)(=O)c2ccc(F)cc2)cc1)C1CCCCCC1"
measured_on = "Ectonucleotide pyrophosphatase/phosphodiesterase family member 1 (Homo sapiens)"
u = "%"
value = 39.3

[[record]]
record_smiles = "Cc1ccc(S(=O)(=O)Oc2ccc(NC(=O)C3CCCCC3)cc2)cc1"
measured_on = "Ectonucleotide pyrophosphatase/phosphodiesterase family member 1 (Homo sapiens)"
u = "%"
value = 43

[[record]]
record_smiles = "CC(C)c1cc(C(C)C)c(S(=O)(=O)Oc2ccc(NC(=O)C3CCCCCC3)cc2)c(C(C)C)c1"
measured_on = "Ectonucleotide pyrophosphatase/phosphodiesterase family member 1 (Homo sapiens)"
u = "%"
value = 29

[[record]]
record_smiles = "Cc1ccc(S(=O)(=O)Oc2ccc(NC(=O)C3CCCCCCC3)cc2)cc1"
measured_on = "Ectonucleotide pyrophosphatase/phosphodiesterase family member 1 (Homo sapiens)"
u = "%"
value = 43

[[record]]
record_smiles = "CC(C)(C)c1ccc(S(=O)(=O)Oc2ccc(NC(=O)C3CCCCCCC3)cc2)cc1"
measured_on = "Ectonucleotide pyrophosphatase/phosphodiesterase family member 1 (Homo sapiens)"
u = "%"
value = 40

[[record]]
record_smiles = "O=C(Nc1ccc(OS(=O)(=O)c2cccc3cccnc23)cc1)c1ccc2ccccc2c1"
measured_on = "Ectonucleotide pyrophosphatase/phosphodiesterase family member 1 (Homo sapiens)"
u = "%"
value = 37

[[record]]
record_smiles = "CC(C)c1cc(C(C)C)c(S(=O)(=O)Oc2ccc(NC(=O)C3CCCCCCC3)cc2)c(C(C)C)c1"
measured_on = "Ectonucleotide pyrophosphatase/phosphodiesterase family member 1 (Homo sapiens)"
u = "%"
value = 30

[[record]]
record_smiles = "O=C(Nc1ccc(OS(=O)(=O)c2ccc(C(F)(F)F)cc2)cc1)C1CCCCCCC1"
measured_on = "Ectonucleotide pyrophosphatase/phosphodiesterase family member 1 (Homo sapiens)"
u = "%"
value = 29

[[record]]
record_smiles = "O=C(Nc1ccc(OS(=O)(=O)c2ccccc2)cc1)C1CCCCCCC1"
measured_on = "Ectonucleotide pyrophosphatase/phosphodiesterase family member 1 (Homo sapiens)"
u = "%"
value = 45


====

Molecular target: Ectonucleotide pyrophosphatase/phosphodiesterase family member 3 (Homo sapiens, UniProt O14638)
OUTCOME MEASURE: IC50

[[record]]
record_smiles = "CC(C)c1cc(C(C)C)c(S(=O)(=O)Oc2ccc(NC(=O)c3ccc(Cl)cc3)cc2)c(C(C)C)c1"
outcome_measure = "IC50"
value = "1.2 µM"

[[record]]
record_smiles = "Cc1ccc(S(=O)(=O)Oc2ccc(NC(=O)C3CCCC3)cc2)cc1"
outcome_measure = "IC50"
value = "0.856 µM"

[[record]]
record_smiles = "O=C(Nc1ccc(OS(=O)(=O)c2ccccc2)cc1)c1ccc2ccccc2c1"
outcome_measure = "IC50"
value = "20.5 µM"

[[record]]
record_smiles = "CS(=O)(=O)Oc1ccc(NC(=O)C2CCCCC2)cc1"
outcome_measure = "IC50"
value = "1.35 µM"

[[record]]
record_smiles = "CCS(=O)(=O)Oc1ccc(NC(=O)C2CCCCC2)cc1"
outcome_measure = "IC50"
value = "0.369 µM"


====

Target: Ectonucleotide pyrophosphatase/phosphodiesterase family member 1 (Homo sapiens, UniProt P22413)
Sequence (P22413 whole entry): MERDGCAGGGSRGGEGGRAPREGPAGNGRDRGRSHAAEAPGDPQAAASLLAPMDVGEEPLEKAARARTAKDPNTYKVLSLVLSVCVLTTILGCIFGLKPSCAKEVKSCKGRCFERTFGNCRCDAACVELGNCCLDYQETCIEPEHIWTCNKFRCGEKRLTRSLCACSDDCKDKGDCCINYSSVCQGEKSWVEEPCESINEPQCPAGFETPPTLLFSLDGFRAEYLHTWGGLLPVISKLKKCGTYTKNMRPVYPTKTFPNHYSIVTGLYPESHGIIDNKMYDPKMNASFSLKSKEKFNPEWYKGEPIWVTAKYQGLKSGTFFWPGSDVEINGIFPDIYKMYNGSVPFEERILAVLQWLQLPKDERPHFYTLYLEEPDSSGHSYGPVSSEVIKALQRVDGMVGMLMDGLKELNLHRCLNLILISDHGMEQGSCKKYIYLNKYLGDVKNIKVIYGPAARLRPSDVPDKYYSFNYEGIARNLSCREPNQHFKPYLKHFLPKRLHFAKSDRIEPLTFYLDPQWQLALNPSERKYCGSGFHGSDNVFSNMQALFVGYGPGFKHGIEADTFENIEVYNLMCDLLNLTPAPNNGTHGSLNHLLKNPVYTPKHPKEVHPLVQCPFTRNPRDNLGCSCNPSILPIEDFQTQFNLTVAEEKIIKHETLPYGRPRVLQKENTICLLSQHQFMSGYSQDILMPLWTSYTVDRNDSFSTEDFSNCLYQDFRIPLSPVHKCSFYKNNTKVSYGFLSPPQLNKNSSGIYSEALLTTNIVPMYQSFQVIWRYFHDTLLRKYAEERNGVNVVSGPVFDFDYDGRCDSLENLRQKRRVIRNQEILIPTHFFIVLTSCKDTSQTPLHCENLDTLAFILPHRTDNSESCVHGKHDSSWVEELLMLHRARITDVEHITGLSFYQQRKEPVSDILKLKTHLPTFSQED
pIC50: −log10 of the molar value.
OUTCOME MEASURE: pIC50

[[record]]
record_smiles = "O=C(Nc1ccc(OS(=O)(=O)c2ccc(C(F)(F)F)cc2)cc1)C1CCCC1"
outcome_measure = "pIC50"
value = 5.95

[[record]]
record_smiles = "CCCS(=O)(=O)Oc1ccc(NC(=O)C2CCCCC2)cc1"
outcome_measure = "pIC50"
value = 5.46

[[record]]
record_smiles = "CC(C)(C)c1ccc(S(=O)(=O)Oc2ccc(NC(=O)C3CCCCC3)cc2)cc1"
outcome_measure = "pIC50"
value = 5.59

[[record]]
record_smiles = "CC(C)(C)c1ccc(S(=O)(=O)Oc2ccc(NC(=O)C3CCCC3)cc2)cc1"
outcome_measure = "pIC50"
value = 5.78

[[record]]
record_smiles = "CCS(=O)(=O)Oc1ccc(NC(=O)C2CCCCC2)cc1"
outcome_measure = "pIC50"
value = 5.79

[[record]]
record_smiles = "O=C(Nc1ccc(OS(=O)(=O)c2ccccc2)cc1)C1CCCCCC1"
outcome_measure = "pIC50"
value = 4.86

[[record]]
record_smiles = "O=C(Nc1ccc(OS(=O)(=O)c2ccc(C(F)(F)F)cc2)cc1)C1CCCCCC1"
outcome_measure = "pIC50"
value = 6.37

[[record]]
record_smiles = "CS(=O)(=O)Oc1ccc(NC(=O)C2CCCCC2)cc1"
outcome_measure = "pIC50"
value = 5.72

[[record]]
record_smiles = "CC(C)(C)c1ccc(S(=O)(=O)Oc2ccc(NC(=O)C3CCCCCC3)cc2)cc1"
outcome_measure = "pIC50"
value = 5.83

[[record]]
record_smiles = "CC(C)c1cc(C(C)C)c(S(=O)(=O)Oc2ccc(NC(=O)c3ccc(Cl)cc3)cc2)c(C(C)C)c1"
outcome_measure = "pIC50"
value = 6.01

